Reference for the values: paper PMC10202811

test: Plasma pharmacokinetics of lorlatinib at steady state (LC-MS/MS, non-compartmental analysis); format: in vivo, human; settings: human, plasma, oral, 75 mg/m2, Cohort A1, 75 mg/m2 per dose, C1D15, Median, N 3; read-out: AUC_TAU
property label: AUC (ng·h/mL)
I only need the number, in ng·h/mL, no unit after it.

Any idea what its AUC is? The compound is C[C@H]1Oc2cc(cnc2N)-c2c(nn(C)c2C#N)CN(C)C(=O)c2ccc(F)cc21 [Lorlatinib]
4020

====

experiment: Plasma pharmacokinetics of lorlatinib at steady state (LC-MS/MS, non-compartmental analysis); format: in vivo, human; conditions: Cycle 1 Day 1, Cohort B2, 115 mg/m2 per dose
property label: Tlast (h)
I only need the number, in h, no unit after it.

Any idea what its Tlast is? The compound is `C[C@H]1Oc2cc(cnc2N)-c2c(nn(C)c2C#N)CN(C)C(=O)c2ccc(F)cc21`
24
